Value source: patent US9402395B2

# System: Thrips tabaci
# Procedure Text: Thrips tabaci (Onion thrips) sunflower leaf disc spray test
# Assay type: in vivo
# Test Context: foliar, 168 h, application rate of 200 ppm, sunflower leaf discs, population of mixed ages, mortality after 7 days
Assay Metric: pest or weed control at 200 ppm

Ask | Consider the molecule CN(C(=O)c1cccnc1)c1cccc(C(=O)N(C)c2c(Br)cc(C(F)(C(F)(F)F)C(F)(F)F)cc2Br)c1 . State its measured pest or weed control at 200 ppm.
Reply | ≥ 80%

Ask | Consider the molecule CN(C(=O)c1cccnc1)c1cccc(C(=O)Nc2c(Br)cc(C(F)(C(F)(F)F)C(F)(F)F)cc2Br)c1F . State its measured pest or weed control at 200 ppm.
Reply | ≥ 80%

Ask | Consider the molecule CN(C(=O)c1cccnc1)c1cccc(C(=O)Nc2c(Cl)cc(C(F)(C(F)(F)F)C(F)(F)F)cc2Br)c1F . State its measured pest or weed control at 200 ppm.
Reply | ≥ 80%
